pEC50 for assorted binders
biological target: T1, Peptide-27 (cysteine pairing not given here; also: biotinylated, site not given here); assay: ELISA, Fab on captured biotin-peptide
T1 peptide: FSLVCVRNLYCWNV
Where no end group is shown, it is not given here.
Keep in mind that pEC50 stands for -log10 of concentration in molar terms.

query: Please list pEC50 recorded for the binder TBD-1 wt (Fab, V domains shown, Fab; the heavy chain entry is VH-CH1; also called wild-type anti-TROP2 Fab (hRS7); TROP2 Fab) VH: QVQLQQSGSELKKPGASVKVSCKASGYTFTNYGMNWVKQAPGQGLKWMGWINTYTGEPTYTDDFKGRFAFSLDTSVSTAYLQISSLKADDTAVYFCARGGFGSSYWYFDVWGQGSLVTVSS VL: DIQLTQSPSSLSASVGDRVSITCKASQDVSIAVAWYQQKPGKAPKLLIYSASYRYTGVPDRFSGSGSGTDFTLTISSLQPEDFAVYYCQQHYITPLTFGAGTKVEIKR
result: 7.62

query: Output measured pEC50 for this item: TBD-17 (HC S104A) (Fab, V domains shown, Fab; also called HC S104A mutant) VH: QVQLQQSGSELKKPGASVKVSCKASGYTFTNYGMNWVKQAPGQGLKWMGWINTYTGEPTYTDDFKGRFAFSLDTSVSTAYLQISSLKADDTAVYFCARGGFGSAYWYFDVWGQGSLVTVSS VL: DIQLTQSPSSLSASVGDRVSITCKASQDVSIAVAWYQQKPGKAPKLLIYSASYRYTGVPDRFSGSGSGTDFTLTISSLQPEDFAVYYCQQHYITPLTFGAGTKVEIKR
result: 6.97

query: # return recorded pEC50 for entry TBD-21 (HC F108A) (Fab, V domains shown, Fab; also called HC F108A mutant) VH: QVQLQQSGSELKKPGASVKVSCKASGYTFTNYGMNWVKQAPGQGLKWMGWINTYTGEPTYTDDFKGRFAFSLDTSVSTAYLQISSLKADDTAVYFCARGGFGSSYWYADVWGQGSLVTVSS VL: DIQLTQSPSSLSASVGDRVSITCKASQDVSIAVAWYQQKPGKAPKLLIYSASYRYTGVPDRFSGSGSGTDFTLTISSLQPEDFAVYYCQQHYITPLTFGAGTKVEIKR
result: 6.83

query: Retrieve pEC50 measured for TBD-6 (LC I93A) (Fab, V domains shown, Fab; also called LC I93A mutant) VH: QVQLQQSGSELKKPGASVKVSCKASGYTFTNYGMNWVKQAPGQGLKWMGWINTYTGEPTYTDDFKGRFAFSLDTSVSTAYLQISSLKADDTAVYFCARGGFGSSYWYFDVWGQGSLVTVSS VL: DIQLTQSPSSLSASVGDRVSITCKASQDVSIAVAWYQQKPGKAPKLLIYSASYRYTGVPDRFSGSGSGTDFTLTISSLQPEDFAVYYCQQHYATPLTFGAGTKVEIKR and print it.
result: 6.75

# credit: patent US20230357429A1
